# measured-on: recombinant purified human IL-12 p70 (human) (UniProt P29459)
# Sequence (chain, as listed by the source, form in doubt, chain 1 of 2): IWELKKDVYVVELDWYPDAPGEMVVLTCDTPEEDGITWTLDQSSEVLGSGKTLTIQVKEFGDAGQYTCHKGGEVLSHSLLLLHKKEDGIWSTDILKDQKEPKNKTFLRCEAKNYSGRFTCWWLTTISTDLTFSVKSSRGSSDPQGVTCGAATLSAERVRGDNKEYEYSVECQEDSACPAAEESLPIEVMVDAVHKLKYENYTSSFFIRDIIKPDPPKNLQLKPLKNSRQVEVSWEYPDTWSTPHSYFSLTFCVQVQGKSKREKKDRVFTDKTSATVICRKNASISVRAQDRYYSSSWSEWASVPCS
# Sequence (P29459 23-219, form in doubt, chain 2 of 2): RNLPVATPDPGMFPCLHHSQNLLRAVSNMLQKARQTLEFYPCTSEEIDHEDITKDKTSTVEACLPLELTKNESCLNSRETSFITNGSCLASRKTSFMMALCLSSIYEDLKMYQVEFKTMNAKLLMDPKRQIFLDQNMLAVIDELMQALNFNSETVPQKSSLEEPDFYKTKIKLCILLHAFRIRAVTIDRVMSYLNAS
# procedure-summary: SPR (Biacore 3000), mAb captured via goat anti-mouse IgG Fc, human IL-12 p70 in solution
reported-endpoint: koff (s⁻¹)
Give the value in s⁻¹ but do not write s⁻¹ after it.

Solved entries:
binder: 1H6 (antibody, V domains shown) VH: EVKLVESGGGLVQPGGSRKLSCAASGFTFSDYGMVWVRQAPGKGLEWVAYISSGSSTIHYADTMKGRFTISRDNPKNTLFLQMSSLRSEDTAMYYCARRHYYAMDYWGQGTSVTVSS VL: SFVMTQTPKFLLVSAGDRVTITCKASQSVSNDVAWYQQKPGQSPKLLIYYASNRYTGVPDRFTGTGYGTDFTFTISTVQAEDLAVYFCQQDYTSPFTFGSGTKLEIKR
unit-abbrev: s⁻¹
koff: 9.9e-05

binder: 5E8 (antibody, V domains shown) VH: QIQLVQSGPELKKPGETVKISCKASGYSFTDYSMHWVKQAPGKGLKWMDWINTETGEPTYADDFKGRFAFSLETSASTAYLQINNLKNEDTATYFCSRRRYRAFDYWGQGTTLTVSS VL: SIVMTQSPKFLLVSAGDRVTITCKASQSVSNDVAWYQQKLGQSPKLLIYYASNRYTGVPDRFTGSGYGTDFTFTINTVQAEDLAVYFCQQDYTSPYTFGGGTKLEIQR
unit-abbrev: s⁻¹
koff: 0.0023

binder: 1D8 (antibody, V domains shown) VH: QVQLQQSGAELMKPGASVKISCKATGYTFSSYWIEWVKQRPGHGLEWIGDILPGSGSTNYNEKFKDKATFTADTSFNTAYMQLSSLTSEDSAVYYCATRRFRGLDYWGQGTTLTVSS VL: SIVMTQTPKFLLVSAGDRVTITCKASQSVSNDVAWYQQKSGQSPKLLIYYASNRYTGVPDRFTGSGYGTDFTFTISTVQPEDLAVYFCQQDYTSPFTFGSGTKLEIKR
unit-abbrev: s⁻¹
koff: 2.3e-05

binder: 1D4 (antibody, V domains shown) VH: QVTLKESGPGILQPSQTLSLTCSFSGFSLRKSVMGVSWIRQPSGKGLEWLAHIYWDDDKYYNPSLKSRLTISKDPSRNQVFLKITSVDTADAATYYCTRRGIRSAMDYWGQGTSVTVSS VL: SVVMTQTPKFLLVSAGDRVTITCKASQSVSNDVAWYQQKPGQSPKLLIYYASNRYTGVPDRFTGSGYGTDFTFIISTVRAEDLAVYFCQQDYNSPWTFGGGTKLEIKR
unit-abbrev: s⁻¹
koff: 2.9e-05

binder: 1A6 (antibody, V domains shown) VH: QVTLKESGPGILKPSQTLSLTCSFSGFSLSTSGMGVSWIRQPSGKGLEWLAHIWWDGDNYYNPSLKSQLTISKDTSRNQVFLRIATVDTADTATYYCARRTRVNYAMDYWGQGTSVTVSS VL: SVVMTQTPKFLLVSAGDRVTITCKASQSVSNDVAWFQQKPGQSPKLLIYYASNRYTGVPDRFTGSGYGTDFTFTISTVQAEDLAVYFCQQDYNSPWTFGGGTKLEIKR
unit-abbrev: s⁻¹
koff: 3.5e-05

binder: 7G3 (antibody, V domains shown) VH: EVQLQQSGAEFVRSGASVKLSCTASGLNIKDYYIHWVKQRPEQVLDWIGWIDPENGYSEYAPRFQDKATMTADTSSNTAYLHLSSLTSEDTAVYYCNPGELARYFDYWGQGTTLTVSS VL: DIVLSQSPATLSVTPGDSVSLSCRASQSISKNLHWYQQKSHESPRLLIKYTSQSISGIPSRFSGSGSGTDFTLSINSVETEDFGMYFCQQSISWPLTFGAGTKLELKR
unit-abbrev: s⁻¹
koff: 0.00028

binder: 3G7 (antibody, V domains shown) VH: QVQLQQSGAELMKPGASVKISCKATGYTFNDYWIEWVKQRPGHGLEWIGGFSHGSGSTNYNEKFKGKATFTADSSSNTAYMQLSSLTSEDSAVYYCARRRFRGMDYWGQGTSVTVSS VL: SIVMTQTPKFLLVSAGDRVTITCKASQSVSNDVAWYQQKPGQSPKLLIYYASNRYTGVPDRFTGSGYGTDFTFTITTVQAEDLAVYFCQQDYSSPWSFGGGTKLEIKR
unit-abbrev: s⁻¹
koff: 3.8e-05

binder: 8E1 (antibody, V domains shown) VH: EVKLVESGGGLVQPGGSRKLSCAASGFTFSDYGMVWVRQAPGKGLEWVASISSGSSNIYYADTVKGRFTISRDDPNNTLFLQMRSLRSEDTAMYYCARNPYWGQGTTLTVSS VL: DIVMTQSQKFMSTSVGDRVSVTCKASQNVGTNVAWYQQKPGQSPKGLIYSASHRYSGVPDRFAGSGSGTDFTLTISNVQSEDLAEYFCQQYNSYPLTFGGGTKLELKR
unit-abbrev: s⁻¹
koff: 5.1e-05

Recorded koff for 4B4 (antibody, V domains shown) VH: QVTLKESGPGILKPSQTLSLTCSLSGFSLSTSGMGVSWIRQPSGKGLEWLAHIWWDGDSYSNPSLRSRLTISRDTSRNQVFLRIATVDTADTATYYCARRTRVNYAMDYWGQGTSVTVSS VL: SVVMTQTPKFLLVSAGDRVTMTCKASQSVSNDVAWFQQKPGQSPKLLIYYASNRYTGVPDRFTGSGYGTDFTFTISTVQAEDLAVYFCQQDYNSPWTFGGGTKLEIKR , please?
1.4e-05

Data provenance: patent US20100047245A1
